The following compounds are listed with their measured Population Normal (%) values.
Test system: U2OS
Experiment Summary: Multiplex assay against U2OS
Format: toxicity, cell-based
Run Conditions: human, 24 h, 1 µM, compound concentration 1 uM, number of replicates 2
Could you give me the number in %? Just the number is fine.

COC(=O)c1ccc2c(c1)NC(=O)/C2=C(\Nc1ccc(-c2nccn2C)cc1)c1ccccc1	100

Prompt: Endpoint output: Population Normal (%) of Cn1c(Nc2c(Cl)cccc2Cl)nc2ccc3nc[nH]c(=O)c3c21 . Value?
Completion: 100

Prompt: I would be grateful if you could share the reported Population Normal (%) for COc1c(OCCCN2CCOCC2)ccc2c1N=C(NC(=O)c1cnc(N)nc1)N1CCN=C21 .
Completion: 100

Prompt: Form field: reported Population Normal (%) of CN(C)C/C=C/C(=O)Nc1ccc(C(=O)N2CCCC(Nc3ncc(Cl)c(-c4c[nH]c5ccccc45)n3)C2)cc1 (stereo unspecified)
Completion: 100

Prompt: I'd like to know its Population Normal (%). The compound in question is CN(C)CCCN1c2ccccc2Sc2ccc(Cl)cc21.Cl [CHLORPROMAZINE HYDROCHLORIDE]
Completion: 100

Prompt: Need Population Normal (%), item CN(C)C/C=C/C(=O)Nc1cccc(S(=O)(=O)N2CCC(NC(=O)c3n[nH]cc3NC(=O)c3c(Cl)cc(Cl)cc3Cl)CC2)c1
Completion: 100
